TARGET_OR_SYSTEM: Photoreceptor-specific nuclear receptor (Homo sapiens)
PROCEDURE_DETAILS: NCOR release from NR2E3 in cells – cell-based, luminescence, CHO-S, Gal4-NCOR/VP16-NR2E3, primary screen (AID 602229);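 further: 0% = DMSO with NR2E3 transfected cells and 100% = cells lacking NR2E3 construct; higher means lower luciferase signal from less NR2E3 corepressor binding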
CONDITION_DESCRIPTION: CHO-S Gal4-NCOR/VP16-NR2E3 two-hybrid, luciferase; at 3.98 µM; stronger effect = higher value
In all, about 360,000 compounds went through this assay and about 1,300 (0.36%) were called active. The full list was thinned out, with actives kept by preference.
inhibition of corepressor binding by entry:

MOLECULE: CCn1c(CNC(=O)c2cc(OC)c(OC)c(OC)c2)cc2cc(C)ccc21
READOUT_UNITS: %
inhibition of corepressor binding: 89.3
//
MOLECULE: CCCOc1ccc(Cc2c(Cl)nc(SC)nc2NC)cc1
READOUT_UNITS: %
inhibition of corepressor binding: 92.3
//
MOLECULE: OC(c1ccc(Cl)cc1)c1ncc(-c2ccc(Cl)cc2)[nH]1 (stereo unspecified)
READOUT_UNITS: %
inhibition of corepressor binding: 71.4
//
MOLECULE: O=C(Nc1nnc(-c2ccc(Cl)cc2)o1)c1ccccc1Br
READOUT_UNITS: %
inhibition of corepressor binding: -48
//
MOLECULE: Cc1oc2c(F)c(F)c(F)c(F)c2c1S(=O)(=O)Nc1cccc(C(F)(F)F)c1
READOUT_UNITS: %
inhibition of corepressor binding: 110
//
MOLECULE: N#CC1=C(N)Oc2[nH]c(=S)[nH]c(=O)c2C12C(=O)Nc1ccccc12 (stereo unspecified)
READOUT_UNITS: %
inhibition of corepressor binding: -7.36
//
MOLECULE: CCc1cccc(NC(=O)COC(=O)C2CCN(c3ccc(C(F)(F)F)cn3)CC2)c1
READOUT_UNITS: %
inhibition of corepressor binding: -19.1
//
MOLECULE: Cc1ccc(N(CCC(=O)O)S(=O)(=O)c2cccc(C(F)(F)F)c2)cc1
READOUT_UNITS: %
inhibition of corepressor binding: 4.8
//
MOLECULE: OC[C@@H]1CN(Cc2cccs2)C[C@H](n2cnc3c(NC4CCCC4)ncnc32)O1
READOUT_UNITS: %
inhibition of corepressor binding: -11.2
//
MOLECULE: Cc1ccnc2nc(C(=O)Nc3nnc(-c4ccccc4)o3)nn12
READOUT_UNITS: %
inhibition of corepressor binding: 0.21
//
MOLECULE: COc1cccc(CNC(=O)CCN2C(=S)NC(C)(C)CC2C)c1 (stereo unspecified)
READOUT_UNITS: %
inhibition of corepressor binding: 9.24
//
MOLECULE: CCc1nc(N2CCN(C(C)=O)CC2)c2c3c(sc2n1)CCCC3
READOUT_UNITS: %
inhibition of corepressor binding: -27.3
//
MOLECULE: O=C(CN1CCSCC1)N/N=C/c1ccc(F)cc1F
READOUT_UNITS: %
inhibition of corepressor binding: -6.92
//
MOLECULE: OC[C@@H]1CN(Cc2ccc(-c3ccccc3)cc2)C[C@H](n2cnc3c(NC4CCCC4)ncnc32)O1
READOUT_UNITS: %
inhibition of corepressor binding: 91.4
//
MOLECULE: CCC1CCCCN1C(=O)CSc1nc(C)cc(C)n1 (stereo unspecified)
READOUT_UNITS: %
inhibition of corepressor binding: 7.45
//
MOLECULE: CC[C@H]1CN2CCc3cc(OC)c(OC)cc3[C@@H]2C[C@@H]1C[C@H]1NCCc2cc(OC)c(OC)cc21
READOUT_UNITS: %
inhibition of corepressor binding: 104
//
MOLECULE: Cc1noc(C)c1S(=O)(=O)Nc1cc(C(F)(F)F)ccc1N1CCOCC1
READOUT_UNITS: %
inhibition of corepressor binding: 4.86
//
MOLECULE: CN(C)c1ccc(NC(=S)N(CCc2ccccc2)C2CC(=O)N(c3c(Cl)cccc3Cl)C2=O)cc1 (stereo unspecified)
READOUT_UNITS: %
inhibition of corepressor binding: 0.55
//
MOLECULE: CC(C)OCCCNc1ncnc2c1[nH]c1ccc(F)cc12
READOUT_UNITS: %
inhibition of corepressor binding: 75.6
//
MOLECULE: O=C(c1ccc(N2CCCC2=O)cc1)N1CCN(c2ccc(C(F)(F)F)cc2[N+](=O)[O-])CC1
READOUT_UNITS: %
inhibition of corepressor binding: 82.8
//
MOLECULE: COc1cccc(N2CCN(C(=O)C3CCCN(S(=O)(=O)c4cnc[nH]4)C3)CC2)c1 (stereo unspecified)
READOUT_UNITS: %
inhibition of corepressor binding: -11
//
MOLECULE: C[C@H](CO)N1C[C@H](C)[C@H](CN(C)CC2CC2)Oc2ccc(NC(=O)CCN3CCOCC3)cc2C1=O
READOUT_UNITS: %
inhibition of corepressor binding: -4.02
//
MOLECULE: COc1ccc(C(=O)NC2CC(C)(C)Cc3c2cnn3-c2ccccc2C)o1 (stereo unspecified)
READOUT_UNITS: %
inhibition of corepressor binding: -34.2
//
MOLECULE: CCCOc1ccc(Cc2c(O)nc(SC)[nH]c2=O)cc1C
READOUT_UNITS: %
inhibition of corepressor binding: -21.5
//
MOLECULE: Cc1ccc(S(=O)(=O)N2CCCC(C(=O)N3CCN(C)CC3)C2)cc1 (stereo unspecified)
READOUT_UNITS: %
inhibition of corepressor binding: -11.8
//
MOLECULE: COc1ccc(C(=O)NC2CC(C)(C)Cc3c2cnn3-c2ccccc2)c(OC)c1 (stereo unspecified)
READOUT_UNITS: %
inhibition of corepressor binding: -23.7
//
MOLECULE: CCCc1nc2sc3c(c2c(=O)n1NC(=O)CCCl)CCCC3
READOUT_UNITS: %
inhibition of corepressor binding: 2.18
//
MOLECULE: CC(C)c1ccc(NC(=O)[C@@H](NC(=O)N2CC(=O)Nc3ccccc32)C(C)C)cc1
READOUT_UNITS: %
inhibition of corepressor binding: -32.4
//
MOLECULE: CC(=O)N1CCCc2cc(S(=O)(=O)N3CCCC(C(=O)N4CCN(c5cccc(Cl)c5)CC4)C3)ccc21 (stereo unspecified)
READOUT_UNITS: %
inhibition of corepressor binding: 97.5
//
MOLECULE: COC(=O)c1ccccc1NC(=O)C1CCN(S(=O)(=O)c2cc(OC)ccc2OC)CC1
READOUT_UNITS: %
inhibition of corepressor binding: -0.68
//
MOLECULE: CCn1nc(C)c(CN2CCN(Cc3ccc(OC)c(C)c3C)C(CCO)C2)c1C (stereo unspecified)
READOUT_UNITS: %
inhibition of corepressor binding: -29.8
//
MOLECULE: CC1(C)OC(=O)C2=C(CC(c3ccccc3)OC2CCc2ccccc2)O1 (stereo unspecified)
READOUT_UNITS: %
inhibition of corepressor binding: -2.84
//
MOLECULE: Cc1cc2ccccn2c1C(=O)c1cccc(S(=O)(=O)N2CCOCC2)c1
READOUT_UNITS: %
inhibition of corepressor binding: 2.82
//
MOLECULE: Cc1ccc(NC(=O)C(C)OC(=O)Cc2c[nH]c3ccccc23)cc1S(=O)(=O)N1CCOCC1 (stereo unspecified)
READOUT_UNITS: %
inhibition of corepressor binding: 20.8
//
MOLECULE: COC(=O)c1ccc(C(=O)NC2CC(C)(C)Cc3c2cnn3-c2ccc(F)cc2)nc1 (stereo unspecified)
READOUT_UNITS: %
inhibition of corepressor binding: -87.5
//
MOLECULE: COc1cc(C(=O)NCc2nnc(SCC(=O)Nc3nc4ccc(C)cc4s3)o2)cc(OC)c1OC
READOUT_UNITS: %
inhibition of corepressor binding: -10.1
//
MOLECULE: CCOC(=O)C(CO)NC(=O)C1(NC(C)=O)CCCC1 (stereo unspecified)
READOUT_UNITS: %
inhibition of corepressor binding: -34.7
//
MOLECULE: O=S(=O)(c1ccc(F)cc1)N1CCN=C1SCc1cccc(F)c1
READOUT_UNITS: %
inhibition of corepressor binding: 3.65
//
MOLECULE: COCCNc1nc(-n2nc(C)cc2C)nc2sc3c(c12)CCCC3
READOUT_UNITS: %
inhibition of corepressor binding: 91.3
//
MOLECULE: CC1=C(C(=O)NC2CC(C)(C)Cc3c2cnn3-c2ccc(C)cc2)OCCO1 (stereo unspecified)
READOUT_UNITS: %
inhibition of corepressor binding: -12.3
//
MOLECULE: COc1ccc(C(=O)NC2CCCc3c2cnn3-c2cccc(C)c2C)c(OC)n1 (stereo unspecified)
READOUT_UNITS: %
inhibition of corepressor binding: 91.3

Values compiled from PubChem BioAssay AID602229.
